Target: Gal4-HNF4α (human HNF4α LBD) (Homo sapiens)
Construct: uniprot entry: P41235-1, residues 142-377; expressed in transfected cells; host or cells: HEK293T
Sequence (P41235 142-377): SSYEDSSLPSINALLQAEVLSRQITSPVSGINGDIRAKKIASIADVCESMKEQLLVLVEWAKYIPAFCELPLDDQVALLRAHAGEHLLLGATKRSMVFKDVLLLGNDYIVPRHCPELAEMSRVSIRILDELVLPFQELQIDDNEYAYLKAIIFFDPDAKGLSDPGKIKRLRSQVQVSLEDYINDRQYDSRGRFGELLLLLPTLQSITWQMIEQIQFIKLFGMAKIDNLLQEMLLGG
Assay: Hybrid Gal4-HNF4α reporter gene assay in transiently transfected HEK293T cells
Assay type: cell-based
Details: Table S1, primary screening, 50 µM
Classify: label 1 when HNF4a-screening_activity_(mean_of_n=2) is strictly less than 1; label 0 when HNF4a-screening_activity_(mean_of_n=2) is not.

{"Compound": "COCCOC(=O)c1ccc(N)cc1", "Assigned Class": "label 0"}
{"Compound": "CC(C)(C)OC(=O)/C=C/c1ccccc1", "Assigned Class": "label 0"}
{"Compound": "COc1ccc(O)cc1O", "Assigned Class": "label 0"}
{"Compound": "NC(=O)c1ccncc1", "Assigned Class": "label 1"}
{"Compound": "c1ccc2nccnc2c1", "Assigned Class": "label 1"}
{"Compound": "O=c1ccc2ccccc2o1", "Assigned Class": "label 0"}
{"Compound": "CCCC(=O)Nc1ccc(O)c(C(C)=O)c1", "Assigned Class": "label 1"}
{"Compound": "NCCc1ccc(F)cc1F", "Assigned Class": "label 0"}
{"Compound": "CC(=O)NCCc1c[nH]c2ccccc12 [Prestw-Frag-1478, CC(=O)NCCc1c[nH]c2ccccc12]", "Assigned Class": "label 0"}
{"Compound": "c1ccc(CC2NCCc3ccccc32)cc1 (centres unmarked)", "Assigned Class": "label 0"}
{"Compound": "O=C1CNCCN1", "Assigned Class": "label 0"}
{"Compound": "CCN(CC)CCNC(=O)c1ccc(N)c(Cl)c1", "Assigned Class": "label 0"}
{"Compound": "Cc1ccc(N)c(C#N)c1", "Assigned Class": "label 1"}
{"Compound": "Cc1nc(-c2ccccc2)cs1", "Assigned Class": "label 0"}
{"Compound": "Cn1c(N)nc2ccccc21", "Assigned Class": "label 0"}
{"Compound": "O=C1CN(Cc2ccccc2)CCN1", "Assigned Class": "label 0"}
{"Compound": "c1ccc2c(c1)NCCO2", "Assigned Class": "label 0"}
{"Compound": "CCN(CC)Cc1cc(N)ccc1O", "Assigned Class": "label 0"}
{"Compound": "c1ccc2cnccc2c1", "Assigned Class": "label 0"}
{"Compound": "COC(=O)c1scc(C)c1N", "Assigned Class": "label 0"}

====

Target: Gal4-HNF4α (human HNF4α LBD) (Homo sapiens)
Construct: uniprot entry: P41235-1, residues 142-377; expressed in transfected cells; host or cells: HEK293T
Assay: Hybrid Gal4-HNF4α reporter gene assay in transiently transfected HEK293T cells
Format: cell-based
Conditions: Table S1, primary screening, 50 µM
Here the recorded HNF4a-screening_activity_(mean_of_n=2) is given for each entry.
Recorded Metric: HNF4a-screening_activity_(mean_of_n=2)

{"Compound": "N#CC1(c2ccc(F)cc2)CCCCC1", "Recorded Metric": "HNF4a-screening_activity_(mean_of_n=2)", "Val": 0.99}
{"Compound": "O=c1ccn([C@@H]2C[C@H](O)[C@@H](CO)O2)c(=O)[nH]1", "Recorded Metric": "HNF4a-screening_activity_(mean_of_n=2)", "Val": 0.8958}
{"Compound": "NCCCCc1ccccc1", "Recorded Metric": "HNF4a-screening_activity_(mean_of_n=2)", "Val": 1.332}
{"Compound": "COc1ccc(C(C)=O)c(O)c1", "Recorded Metric": "HNF4a-screening_activity_(mean_of_n=2)", "Val": 1.01}
{"Compound": "c1ccc(CNc2ccccn2)cc1", "Recorded Metric": "HNF4a-screening_activity_(mean_of_n=2)", "Val": 1.278}
{"Compound": "c1ccc(CCn2ccnc2)cc1", "Recorded Metric": "HNF4a-screening_activity_(mean_of_n=2)", "Val": 0.9707}
{"Compound": "CNS(=O)(=O)Cc1ccc2[nH]cc(CCN)c2c1 [Prestw-Frag-3017, CNS(=O)(=O)Cc1ccc2[nH]cc(CCN)c2c1]", "Recorded Metric": "HNF4a-screening_activity_(mean_of_n=2)", "Val": 0.7522}
{"Compound": "O=C(O)c1ccccc1O", "Recorded Metric": "HNF4a-screening_activity_(mean_of_n=2)", "Val": 1.058}
{"Compound": "O=C(CCCN1CCNCC1)c1ccc(F)cc1", "Recorded Metric": "HNF4a-screening_activity_(mean_of_n=2)", "Val": 1.191}
{"Compound": "CCCC(=O)c1ccc(F)cc1", "Recorded Metric": "HNF4a-screening_activity_(mean_of_n=2)", "Val": 1.103}
{"Compound": "NCCOCc1ccccc1", "Recorded Metric": "HNF4a-screening_activity_(mean_of_n=2)", "Val": 0.8708}
{"Compound": "Cc1ccc(S(=O)(=O)NC(N)=O)cc1", "Recorded Metric": "HNF4a-screening_activity_(mean_of_n=2)", "Val": 1.077}
{"Compound": "O=C(c1ccccc1)c1ccc(Br)cc1", "Recorded Metric": "HNF4a-screening_activity_(mean_of_n=2)", "Val": 0.975}
